Known GI50 of a selection of compounds
Test system: MDA-MB-435
Assay: NCI tumour cell line growth inhibition, 48 h
Active and inactive are the calls of the source. Rule as the data show it: active = GI50 up to about 1.1 µM and inactive = higher.

Prompt: Look at this compound and give its reported GI50. `CC(=O)OCc1cccc(O)c1C(=O)CCC=C(C)C`
Completion: > 100 µM (inactive)

Prompt: Consider the compound shown here: `O=C(OCCNC(=O)N1CC1)OCCNC(=O)N1CC1` What is its recorded GI50?
Completion: > 10 µM (inactive)

Prompt: Bench note: what GI50 did `BrCC[N+]12CC[N+](CCBr)(CC1)C2` show?
Completion: > 100 µM (inactive)

Prompt: Requested read-out: GI50. Entry: COc1ccc2c(c1)CC1COc3cc(OC)ccc3C1O2 (configuration not stated)
Completion: > 100 µM (inactive)

Prompt: Need GI50, item `C[N+](CCCl)(CCCl)Cc1cccc2cccc([N+](=O)[O-])c12`
Completion: > 100 µM (inactive)

Prompt: What value of measured GI50 is listed for CC1CN(CCO)CCN1c1ccccc1 (configuration not stated) ?
Completion: > 100 µM (inactive)

***
Prompt: GI50 lookup needed for CC[N+]1(C)CCC(O)(c2ccccc2)C(C(=O)c2ccccc2)C1 (configuration not stated) , thanks.
Completion: 17.9 µM (inactive)

Prompt: Sample `COC(=O)CCC(=O)NC1=C(Nc2ccccc2)C(=O)c2ccccc2C1=O` — what was its GI50?
Completion: 1.97 µM (inactive)

Prompt: Given `COc1cnc2cc(C(=O)O)c3c([N+](=O)[O-])cccc3c2c1` , state its recorded GI50.
Completion: > 100 µM (inactive)

Prompt: Please report the recorded GI50 for `C1=C[C@@H]2c3ccc4cnccc4c3NC[C@@H]2C1` .
Completion: > 100 µM (inactive)

Prompt: // lookup GI50 for COc1cc(NCCC2CCCCN2)c2ncccc2c1 (configuration not stated)
Completion: 26.4 µM (inactive)

Prompt: Which GI50 value is on record for COP(=O)(OC)C(Cc1c[nH]c2ccccc12)NC(=O)OCc1ccccc1 (configuration not stated) ?
Completion: > 100 µM (inactive)

Prompt: Which measured GI50 value corresponds to O=C1CSC2(CC(/C=C/c3ccccc3[N+](=O)[O-])=NN2c2cccc(S(=O)(=O)O)c2)N1c1nc2ccccc2s1 (configuration not stated) ?
Completion: 14.8 µM (inactive)

Prompt: What does the data say about its GI50? Entry: `C/C=C1\C(=O)O[C@H]2C/C(C)=C/CC/C(C)=C/CC[C@@]3(C)O[C@@H]3C[C@@H]12`
Completion: > 100 µM (inactive)

Prompt: Suppose we examine the compound `C1=N\CCNCC/N=C/c2ccccc2OCc2cccc(n2)COc2ccccc2/1` ; what GI50 value has been reported?
Completion: 3.86 µM (inactive)

Prompt: Which GI50 value belongs to `CC(=O)NNc1nc(C)c(C(=O)/C=C/C=C/c2ccccc2)s1` ?
Completion: > 100 µM (inactive)

Prompt: Form field: reported GI50 of `Cc1c(/C=N/NC(=S)Nc2cccc(Cl)c2)c(=O)n(-c2ccccc2)n1C`
Completion: > 100 µM (inactive)

Prompt: Need GI50 of `Oc1ccccc1-n1nc2ccc3nonc3c2n1` , thanks.
Completion: > 100 µM (inactive)

###

Test system: U-251
Assay: NCI tumour cell line growth inhibition, 48 h
Counter-ions that a name gives are not always drawn. Active and inactive are the calls of the source. Rule as the data show it: active = GI50 up to about 1.1 µM and inactive = higher.
Write down the outcome that applies. Available outcomes: t (active), f (inactive)

Prompt: Give the logged outcome of this assay for the following compound: CCOC(=O)c1cc(C2CCN(CC(C)CC)C2=S)c(C(=O)/C=C(/C)N)[nH]1 (stereo not given)
Completion: f

Prompt: In this assay, the call recorded for `CCO/C(Cc1ccc(Cl)cc1)=N/NC(N)=S` was what?
Completion: f

Prompt: Returns: the outcome recorded for CC1CN(CCO)CCN1c1ccccc1 (stereo not given) in this assay.
Completion: f

Prompt: Outcome? `O=C(Nn1c(-c2ccccc2)nc2ccccc2c1=O)c1ccc([N+](=O)[O-])cc1`
Completion: f

Prompt: Please indicate how the test categorized NCCS [CYSTEAMINE HYDROCHLORIDE] .
Completion: f

Others:
Prompt: GET /call?item= `OCCc1ccsc1-c1sc(-c2cc(CCO)c(-c3sccc3CCO)s2)cc1CCO` returns the recorded outcome of this test.
Completion: f

Prompt: Dear all, I need the recorded test outcome for O=C(CC1(O)C(=O)Nc2c(Cl)ccc(Cl)c21)c1ccc(Cl)cc1Cl (stereo not given) , thank you.
Completion: f

Prompt: Give the logged outcome of this assay for the following compound: `Nc1nc(Cl)cc(OCC2(CO)CC=CC2)n1`
Completion: f

###

Tested on: SNB-19
Assay: NCI tumour cell line growth inhibition, 48 h
Active and inactive are the calls of the source. No stated cut-off is given here; in the data, active = GI50 up to about 1.1 µM and inactive = higher.
Value Kind: GI50

Prompt: Please report the recorded GI50 for `CC(=O)NNc1nc(C)c(C(=O)/C=C/C=C/c2ccccc2)s1` .
Completion: > 100 µM (inactive)

Prompt: Given the entry `CNC(=S)/N=c1/sc(NC)nc2sc3c(c12)CCCC3` , report its measured GI50.
Completion: 35.9 µM (inactive)

Prompt: Using the record for O=C1/C(=C/c2ccc(O)cc2)CCCC1CN1CCCCC1 (stereo unspecified) , report its GI50.
Completion: 17.6 µM (inactive)

Prompt: GI50 for COP(=O)(OC)C(Cc1c[nH]c2ccccc12)NC(=O)OCc1ccccc1 (stereo unspecified) ?
Completion: > 100 µM (inactive)

Prompt: Given the compound `O=C1CC2(CCN(Cc3ccccc3)CC2)C(=O)N1N1CCCCC1` , what is its reported GI50?
Completion: > 100 µM (inactive)

Now look at this entry.
Prompt: Given the entry `Cc1cc(C)c(N)c(CO)c1` , report its measured GI50.
Completion: > 100 µM (inactive)

###

System: SNB-75
Test: NCI tumour cell line growth inhibition, 48 h
Activity calls are given as the source filed them. No stated cut-off is given here; in the data, active = GI50 up to about 1.1 µM and inactive = higher.
Pick one: active, inactive

Prompt: Could you kindly confirm the outcome this assay logged for `CS(=O)(=O)c1c(N)c2nc(Cl)cn2c2nc3ccccc3nc12` ?
Completion: inactive

Prompt: In this assay, the call recorded for Cc1ccc(NC(=O)C(=O)C(C#N)c2ccccc2C)cc1C (stereo unspecified) was what?
Completion: inactive

***
Prompt: Record request — test call for `Cc1cc(S(=O)(=O)Nc2nc(N)n(-c3ccccn3)n2)c(S)cc1Cl`
Completion: inactive

Prompt: Tell me the assay call for `CCN(CC)CCNC(=O)c1cn2c(ccc3sc4ccccc4c(=O)c32)n1` please.
Completion: inactive

Prompt: For this compound, state the assay outcome: CC(=O)NC(CCC(=O)C=[N+]=[N-])C(=O)O (stereo unspecified)
Completion: inactive

Prompt: Each compound tested received a call. Report the one for `COc1cnc2oc3ccc(O)cc3c2c1-c1ccccc1` .
Completion: inactive

Prompt: Could you check what this test reported for `CC(C)(C)OC(=O)N(O)CCCn1cnc2c(N)ncnc21` ?
Completion: inactive

Prompt: Name the outcome recorded for CC(C)(C)C(=O)OCC1CCC[N+]2(C)CCCCC12 (stereo unspecified) in the assay.
Completion: inactive

Prompt: // outcome(item) with item = `COC(=O)N/N=C/c1oc(-c2ccccc2)c(-c2ccccc2)c1[N+](=O)[O-]`
Completion: inactive

###

System: NCI-H460
Test: NCI tumour cell line growth inhibition, 48 h
Activity calls are given as the source filed them. No stated cut-off is given here; in the data, active = GI50 up to about 1.1 µM and inactive = higher.
Value Kind: GI50

Prompt: Look up GI50 for this compound: C[N+](C)(C)CC1CCCCCCCCCCC1=O (stereo not given)
Completion: > 100 µM (inactive)

Prompt: Which measured GI50 value corresponds to `CC(=O)NCc1c(C(N)=O)ncn1Cc1ccccc1` ?
Completion: > 100 µM (inactive)

Prompt: Consider the compound shown here: `CC(C)(C)OC(=O)N1C/C=C\C(=O)C2(OCCO2)c2ccccc21` What is its recorded GI50?
Completion: 22.7 µM (inactive)

Prompt: Which GI50 is reported for this compound? CCCCC1(C(NC(=O)c2ccccc2Cl)c2ccncc2)C(=O)N(c2ccccc2)N(c2ccccc2)C1=O (stereo not given)
Completion: 32.8 µM (inactive)

Prompt: Returns the measured GI50 for the input compound. Input: COc1c2c(c3ccccc3c1O)C1C=CC2C1 (stereo not given)
Completion: 18.5 µM (inactive)

***
Prompt: I would be grateful if you could share the reported GI50 for Cc1cc(O)c2c(c1)CC(O)C1=C2C(=O)c2c(O)ccc(OC3CC(O)C(OC4CC(OC5CCC(O)C(C)O5)C(O)C(C)O4)C(C)O3)c2C1=O (stereo not given) .
Completion: 2.16 µM (inactive)

Prompt: Look up GI50: `NCCCN(CCCCN(CCCN)CCCc1ccccc1)CCCc1ccccc1`
Completion: 1.42 µM (inactive)

Prompt: If you can, please state the reported GI50 value of `COc1ccc([C@H]2[C@H](C)C3=Nc4ccccc4CN32)cc1` .
Completion: 31.6 µM (inactive)

Prompt: Fill in: GI50 of `COc1cc2c(cc1OCc1ccccc1)NC(=O)[C@@H]1C[C@@H](O)CN1C2=O` is ___
Completion: > 100 µM (inactive)

Prompt: Given the compound N#CC(/C(=N/NC(N)=S)C(=O)Nc1cccc(Cl)c1)c1ccccc1 (stereo not given) , what is its reported GI50?
Completion: > 100 µM (inactive)
